# System: human APOE RNA
# assay comment: Dose-dependent inhibition of human APOE RNA in HepG2 cells, electroporation, 50,000 cells per well, RT-PCR normalized to GAPDH (Example 4, Tables 8-10)
# Type: cell-based
# stated conditions: 33 nM; HepG2, electroporation, 16-hour treatment
Strand notation (5' to 3'): a small letter for the sugar, then the base; units joined by * are phosphorothioate-linked, units joined directly phosphodiester-linked; [ ] holds rarer units or linkages, { } end groups; capitals alone tell only the bases. e = 2'-O-(2-methoxyethyl) (MOE); k = constrained ethyl (cEt); [5mC] = 5-methylcytosine; d = 2'-deoxy (DNA)
measure name: APOE RNA (% UTC)
Numbers only here, please. The scale is % UTC.

The following substances have reported results that may help.
| substance | value |
| --- | --- |
| 1757561: mixed MOE/cEt gapmer TTGGTGAATCTTTATTAA, sugar eeekkddddddddkeeee, linkages soossssssssssooss (eT*eTeGkG*kT*dG*dA*dA*dT*d[5mC]*dT*dT*dT*kAeTeT*eA*eA) [compound 1757561] | 240 |
| 1757559: mixed MOE/cEt gapmer TTGGTGAATCTTTATTAA, sugar eeeekddddddddkeeee, linkages soossssssssssooss (eT*eTeGeG*kT*dG*dA*dA*dT*d[5mC]*dT*dT*dT*kAeTeT*eA*eA) [compound 1757559] | 89 |
| 1757568 (eA*e[5mC]eTeTeG*dG*dT*dG*dA*dA*dT*d[5mC]*dT*dT*dT*kAkTeT*eA*eA; antisense) [Compound 1757568] | 104 |

Fill in the blank: the reported APOE RNA (% UTC) of 1757544: mixed MOE/cEt gapmer TTGGTGAATCTTTATTAA, sugar ekeeeddddddddeeeee, linkages soossssssssssooss (eT*kTeGeG*eT*dG*dA*dA*dT*d[5mC]*dT*dT*dT*eAeTeT*eA*eA) [compound 1757544] is ____.
100

###

# Tested on: human APOE RNA
# assay comment: Dose-dependent inhibition of human APOE RNA in HepG2 cells, electroporation, 50,000 cells per well, RT-PCR normalized to GAPDH (Example 4, Tables 8-10)
# Format: cell-based
# stated conditions: 1,280 nM; HepG2, electroporation, 16-hour treatment
# Method: Modified oligonucleotides selected from the examples above were tested at various doses in HepG2 cells. The modified oligonucleotides were tested in a series of experiments that had the same culture conditions. Each experiment is identified in separate tables below. HepG2 cells plated at a density of 50,000 cells per well were treated by electroporation with various concentrations of modified oligonucleotide as specified in the tables below. […]
Strand notation (5' to 3'): a small letter for the sugar, then the base; units joined by * are phosphorothioate-linked, units joined directly phosphodiester-linked; [ ] holds rarer units or linkages, { } end groups; capitals alone tell only the bases. [ms] = mesyl phosphoramidate linkage; e = 2'-O-(2-methoxyethyl) (MOE); k = constrained ethyl (cEt); [5mC] = 5-methylcytosine; d = 2'-deoxy (DNA)
The following substances are listed with their measured APOE RNA (% UTC) values.
Answer with the figure and its unit, nothing else.

| substance | measure name | value |
| --- | --- | --- |
| 1757559: mixed MOE/cEt gapmer TTGGTGAATCTTTATTAA, sugar eeeekddddddddkeeee, linkages soossssssssssooss (eT*eTeGeG*kT*dG*dA*dA*dT*d[5mC]*dT*dT*dT*kAeTeT*eA*eA) [compound 1757559] | APOE RNA (% UTC) | 60 % UTC |
| 1757570 (eA*e[5mC]eTeTkG*dG*dT*dG*dA*dA*dT*d[5mC]*dT*dT*dT*kAkTeT*eA*eA; antisense) [Compound 1757570] | APOE RNA (% UTC) | 42 % UTC |
| 1757571 (eA*e[5mC]eTeT*eG*kG*dT*dG[ms]dA[ms]dA[ms]dT*d[5mC]*dT*dT*dT*dA[ms]eT*eT*eA*eA; antisense) [Compound 1757571] | APOE RNA (% UTC) | 26 % UTC |
| 1766559 (eT*eTeGeGeT*dG[ms]dA[ms]dA[ms]dT*d[5mC]*dT*dT*dT[ms]dA[ms]dT*kTkAeA*eA*e[5mC]; antisense) [Compound 1766559] | APOE RNA (% UTC) | 30 % UTC |

Fill in the blank: the reported APOE RNA (% UTC) of 1757569 (eA*e[5mC]eTkTkG*dG*dT*dG*dA*dA*dT*d[5mC]*dT*dT*dT*kAeTeT*eA*eA; antisense) [Compound 1757569] is ____.
24 % UTC

Fill in the blank: the reported APOE RNA (% UTC) of 1757567 (eA*e[5mC]eTeTeG*dG*dT*dG*dA*dA*dT*d[5mC]*dT*dT*dT*kAeTeT*eA*eA; antisense) [Compound 1757567] is ____.
59 % UTC
